# key: entry, value: fold change
Assay: sensitizers of A549 cells to miR-34 induction, primary screen, imaging, A549 dox-inducible miR-34, nuclei and caspase counts (AID 1347080)
Details: A549 miR-34 inducible, Hoechst nuclei count, 48 h; hits give low values
Reported metric: fold change

• CC(C)c1c(CN(C)C(C)Cc2ccccc2)n(C)n(-c2ccccc2)c1=O (centres undefined) = 0.889
• CCCCOC(=O)c1ccccc1C(=O)OCCCC = 0.891
• OC[C@H]1O[C@@H](n2cnc3cc(Cl)c(Cl)cc32)C(O)[C@H]1O (some centres undefined) = 0.916
• C[C@]12CCC3C(CCC4=CC(=O)CC[C@@]43C)C1CCC2O (some centres undefined) = 0.881
• CCCCCCC(C)(C)c1ccc([C@@H]2C[C@H](O)CC[C@H]2CCCO)c(O)c1 = 0.915
• N#CC(=Cc1ccc(O)c(O)c1)C(N)=S = 0.981
• Clc1ccc(N2CC3CCC(C2)N3)nn1 = 1
• CCCCCCCCCCCCCCCC(=O)OC[C@H](COP(=O)([O-])OCC[N+](C)(C)C)OC(C)=O = 0.988
• CNCCc1ccc(O)c(O)c1 = 1.01
• COc1ccc(C(=O)c2c(C)n(CCN3CCOCC3)c3ccccc23)cc1 = 0.898
• CCOP(=S)(OCC)Oc1nc(Cl)c(Cl)cc1Cl = 0.887
• CN1C(=O)[C@]23CC4=CC=C[C@H](O)[C@H]4N2C(=O)[C@@]1(CO)SS3 = 0.901
• C=CCN1CC[C@]23c4c5ccc(O)c4OC2C(=O)CC[C@@]3(O)[C@H]1C5 (some centres undefined) = 0.923
• COc1ccc2[nH]cc(C3=CCNCC3)c2c1 = 0.984

----------
Assay: growth inhibition of DIPG glioma cells, dose response, cell-based, SU-DIPG-XIII, MIPE4.0, CellTiter-Glo, qHTS (AID 1347061);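 further: cells exposed to compound for 48 hours before readout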
Conditions: SU-DIPG-XIII viability, CellTiter-Glo ATP luminescence
Results filed as inconclusive are left out. Active and inactive are the calls of the source. No cut-off is given here; in the data, nearly all actives have AC50 up to about 37 µM.
Possible outcomes: active, inactive

* CC[C@@H](C(N)=O)N1CCCC1=O | inactive
* Clc1ccccc1C(c1ccccc1)(c1ccccc1)n1cccn1 | inactive
* C[C@@H]1O[C@@H](O[C@@H]2C=C3CC[C@H]4[C@@H](CC[C@]5(C)[C@H](c6ccc(=O)oc6)CC[C@@]45O)[C@@]3(C)CC2)[C@H](O)[C@H](O)[C@@H]1O | active
* C=C[C@H]1CN2CCC1C[C@@H]2[C@@H](O)c1ccnc2ccccc12 (stereo partly specified) | active
* O=C1CC[C@@]2(O)[C@H]3Cc4ccc(O)c5c4[C@@]2(CCN3CC2CC2)[C@H]1O5 | inactive
* C[N+](C)(C)CC(=O)O | inactive
* CC(C)N(CCNC(=O)CN1CCCC1=O)C(C)C | inactive
* C[C@@H]1[C@H](O)[C@@H](C)C=CC=CCCC=CC=CC=CC=C[C@H](O[C@H]2O[C@@H](C)[C@H](O)[C@@H](N)[C@H]2O)CC2O[C@](O)(C[C@@H](O)[C@H](O)CC[C@@H](O)C[C@@H](O)C[C@@H](O)CC(=O)O[C@H]1C)C[C@H](O)[C@H]2C(=O)O | inactive
* C#CCN(C)[C@H](C)Cc1ccccc1 | inactive
* CC(C)C[C@H](CN)CC(=O)O | inactive
* Cc1cccc(C)c1NC(=O)CN1CCCC1=O | inactive
